biological target: DP4 variant N710A (Homo sapiens, UniProt P27487, N710A); construct: His(6)-37-766 hDP4 containing fractions were concentrated to 1 ml; made in house; host or cells: Pichia pastoris X-33 (vector pPICZα C, secreted); test: IC50 determination with substrate Gly-Pro-AMC; assay type: biochemical; details: bounds given in mM, 100 mM HEPES-buffer (pH 7.6), T = 30 °C, substrate Gly-Pro-AMC in the range of Km
Non-standard residues stand in square brackets, D forms with d. Residues, ends and D or L forms follow the SMILES beside them. Tle = CC(C)(C)[C@H](N)C(=O)O
MEASURE: IC50

// lookup IC50 | system=DP4 variant N710A (Homo sapiens, UniProt P27487, N710A) | key= CC[C@H](C)[C@H](NC(=O)[C@@H]1CCCN1C(=O)[C@@H](N)C(C)(C)C)C(=O)O [t-Bu-Gly-Pro-Ile, t-Butyl-Gly-Pro-Ile] (H-[Tle]-Pro-Ile-OH) > 10 mM

###

Target: DP4 variant N710A (Homo sapiens, UniProt P27487, N710A)
Construct: His(6)-37-766 hDP4 containing fractions were concentrated to 1 ml; made in house; host or cells: Pichia pastoris X-33 (vector pPICZα C, secreted)
Experiment: IC50 determination with substrate Gly-Pro-AMC
Type: biochemical
Conditions: 100 mM HEPES-buffer (pH 7.6), T = 30 °C, substrate Gly-Pro-AMC in the range of Km
Protocol: The reactions were performed in 100 mM HEPES buffer, pH 7.6 at 30°C in a total assay volume of 270 μl by using 96-well plates. […] Fluorescence was detected with a […]luor Plus (TECAN) at an excitation wavelength of 380 nm and an emission wavelength of 465 nm.
Non-standard residues stand in square brackets, D forms with d. Residues, ends and D or L forms follow the SMILES beside them. Tle = CC(C)(C)[C@H](N)C(=O)O
MEASURE: IC50 (µM)
Return type: number; implicit unit µM.

// lookup IC50 | system=DP4 variant N710A (Homo sapiens, UniProt P27487, N710A) | key= CC[C@H](C)[C@H](NC(=O)[C@@H]1CCCN1C(=O)[C@@H](N)C(C)(C)C)C(N)=O [t-Bu-Gly-Pro-Ile-NH2, t-Butyl-Gly-Pro-Ile-NH2] (H-[Tle]-Pro-Ile-NH2) 140

###

biological target: DP4 variant E205A (Homo sapiens, UniProt P27487, E205A); construct: His(6)-37-766 hDP4 containing fractions were concentrated to 1 ml as described above; His6 (N); assay: IC50 determination with substrate Gly-Pro-AMC; conditions: 100 mM HEPES-buffer (pH 7.6), T = 30 °C, substrate Gly-Pro-AMC in the range of Km
Sequence (P27487 37-766 E205A): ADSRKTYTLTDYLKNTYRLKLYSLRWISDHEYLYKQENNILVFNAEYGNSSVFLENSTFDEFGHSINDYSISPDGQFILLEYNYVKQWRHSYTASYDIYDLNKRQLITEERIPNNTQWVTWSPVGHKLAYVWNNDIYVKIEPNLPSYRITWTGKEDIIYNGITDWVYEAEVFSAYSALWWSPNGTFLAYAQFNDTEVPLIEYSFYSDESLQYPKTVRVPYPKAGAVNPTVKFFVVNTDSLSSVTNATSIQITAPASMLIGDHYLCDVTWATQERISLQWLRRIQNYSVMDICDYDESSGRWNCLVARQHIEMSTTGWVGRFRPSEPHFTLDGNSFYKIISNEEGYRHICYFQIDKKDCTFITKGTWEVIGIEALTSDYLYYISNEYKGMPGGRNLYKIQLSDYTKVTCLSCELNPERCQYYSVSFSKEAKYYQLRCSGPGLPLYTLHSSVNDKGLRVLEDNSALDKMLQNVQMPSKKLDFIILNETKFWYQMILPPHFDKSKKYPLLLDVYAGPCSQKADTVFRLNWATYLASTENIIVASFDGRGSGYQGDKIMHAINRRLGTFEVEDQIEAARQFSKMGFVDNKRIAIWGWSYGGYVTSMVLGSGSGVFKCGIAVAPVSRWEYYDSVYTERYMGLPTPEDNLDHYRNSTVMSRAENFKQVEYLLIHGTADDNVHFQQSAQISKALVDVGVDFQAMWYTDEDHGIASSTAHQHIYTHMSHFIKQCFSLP
Non-standard residues stand in square brackets, D forms with d. Residues, ends and D or L forms follow the SMILES beside them. Tle = CC(C)(C)[C@H](N)C(=O)O
The entries below are paired with their reported IC50.
Return type: number; implicit unit µM.

COMPOUND	TEST_SYSTEM	MEASURE	UNIT_ABBREV	MEASURED_VALUE
CC[C@H](C)[C@H](NC(=O)[C@@H]1CCCN1C(=O)[C@@H](N)C(C)(C)C)C(N)=O [t-Bu-Gly-Pro-Ile-NH2, t-Butyl-Gly-Pro-Ile-NH2] (H-[Tle]-Pro-Ile-NH2)	DP4 variant E205A (Homo sapiens, UniProt P27487, E205A)	IC50	µM	1300

The record that follows has no IC50 shown yet.
# IC50 lookup, item CC[C@H](C)[C@H](NC(=O)[C@@H]1CCCN1C(=O)[C@@H](N)C(C)(C)C)C(=O)O [t-Bu-Gly-Pro-Ile, t-Butyl-Gly-Pro-Ile] (H-[Tle]-Pro-Ile-OH) 1700
